The reported numbers originate from patent US20180148504A1.

target: T1, recombinant purified FRα (ECL assay calibrator) (human, UniProt P15328 25-234); assay: ECL sandwich, FRα calibrator; capture 1D2.G8.G10; binder = detection Ab
T1 construct: Calibrator of the ECL sandwich assays; also called FRα calibrator; FRα standard
T1 sequence (P15328 25-234 limits assumed): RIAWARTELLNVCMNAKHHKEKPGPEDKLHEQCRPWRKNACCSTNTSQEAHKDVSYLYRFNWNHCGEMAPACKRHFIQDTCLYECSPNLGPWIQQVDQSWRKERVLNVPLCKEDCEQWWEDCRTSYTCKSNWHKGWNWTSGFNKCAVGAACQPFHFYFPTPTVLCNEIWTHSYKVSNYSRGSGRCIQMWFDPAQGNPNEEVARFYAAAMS
assay metric: Specific signal at 500 pg/mL

# input Specific signal at 500 pg/mL lookup needed for Monoclonal antibody 26A9.C4 (antibody, mouse IgG1, V domains shown, Murine IgG1 kappa from hybridoma; also called ATCC PTA-123092) VH: SGARELVKPGASVKLSCKTSGFTFSSSFISWLKQKPGQSLEWIAWIYGGNGGTSYNQNFTGKAQLTVDTSSSTAYMQFSSLTTEDSAVYYCASETYGNYWYFDVWGAGTTVTVSS VL: QSPASLSASVGDTVTITCRASGNIHNYLAWYQQKQGKSPQLLVYNAKTLADGVPSRFSGSGSGTQYSLKINSLQPEDFGNYYCQHFWSTPYTFGGGTKLEIK , thanks.
# output 64

# input Moving on to the next binder: Monoclonal antibody 24H8.D3 (antibody, mouse IgG1, V domains shown, Biotin-conjugated when used as capture antibody in the ECL assay; also called ATCC PTA-123090) VH: QVQLKESGPGLVAPSQSLSITCTVSGFSLTSYGVSWVRQPPGKGLEWLGVIWGDGSTNYHSTLISRLSISKDNSKSQVFLKLNSLQTDDTATYYCAKPHPAATGAMDYWGQGTSVTVSS VL: DIQMTQTTSSLSASLGDRVTISCRASQDISNHLNWYQQKPDGTIKLLIYYTSKLHSGVPSRFSGSGSGTDYSLTISNLEQEDIATYFCQQGNTLWTFGGGTKLEIK
# output 52

# input Then Monoclonal antibody 6A2.G7 (antibody, mouse IgG1, V domains shown, Murine IgG1 kappa from hybridoma; also called ATCC PTA-123093) VH: GADLVKPGASVKMSCKASGYTFSRYNMHWVKQTPGQGLEWIGTIYPGNGDTSYNEKFKGKATLTADKSSSIVYMQVSSLTSEASAVYYCARDYGSRYALDYWGQGTSVTVSS VL: SSLSASLGDRVTISCRASQDISNYLNWYQQKPDGTVKLLIYYTSRLHSGVPSRFSGSGSGTDYSLTISNLEQEDIATYFCQQGNTLPYTFGGGTKLEIK ?
# output 347

# input Same question, Monoclonal antibody 19D4.B7 (antibody, mouse IgG2a, V domains shown, SULFO-TAG conjugated when used as detection antibody in the ECL assay; also called ATCC PTA-11884) VH: GARELVKPGASVKLSCTASGFNIKHPYMHWVKQRPDQGLEWIGRIDPANGNTKYDPKFQGKATITADTSSNTAYLQLSSLTSEDTAVYYCGREEVADYTMDYWGQGTSVTVSS VL: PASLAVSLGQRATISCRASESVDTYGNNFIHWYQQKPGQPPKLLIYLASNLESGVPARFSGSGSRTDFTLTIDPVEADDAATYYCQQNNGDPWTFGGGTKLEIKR this time
# output 1970
